Recorded measurements of ELISA S/N(SA), one per entry
target: Recombinant Human CTLA4-Fc chimera (R&D systems) (human) (UniProt P16410); experiment: ELISA, signal over SA
Write the number on its own, no unit after it.

Recorded ELISA S/N(SA), per entry:
1) GGCLHPHLPIWSLHFCPL (peptide, not shown: large carriers; small tags and cut ends) [C4m#19-5th4w-NN6-59] :: 27.6
2) GGCWHPVLPIRSDHFCCR (peptide, not shown: large carriers; small tags and cut ends) [C4m#19-5th2w-NNS6-41] :: 3.1
3) GGCLHPFLPIFSSHFCAL (peptide, not shown: large carriers; small tags and cut ends) [C4m3127-4th-NNS6-28] :: 23.2
4) GGCSHPFLPIRSRHFCPF (peptide, not shown: large carriers; small tags and cut ends) [C4m3127-4th-NNS6-12] :: 15.8
5) GGCKHPVLPIVSLHFCPW (peptide, not shown: large carriers; small tags and cut ends) [C4m3127-4th-NNS6-90] :: 22.9

Which ELISA S/N(SA) is reported for this binder? GGCMHPFLPIQSVHFCSR (peptide, not shown: large carriers; small tags and cut ends) [C4m#19-5th2w-NNS6-22]
29.3

# repeat for GGCRHPYLPIWSAHFCCR (peptide, not shown: large carriers; small tags and cut ends) [C4m#19-5th4w-NN6-36]
5.7

Also GGCRHPFLPIWSFHFCWG (peptide, not shown: large carriers; small tags and cut ends) [C4m#19-5th2w-NNS6-33] , if possible.
9.4

Follow-up item: GGCFHPFLPIYSWHFCAR (peptide, not shown: large carriers; small tags and cut ends) [C4m#19-5th4w-NN6-74]
15.1

// same read-out, input: GGCRHPYLPIWSIHFCQK (peptide, not shown: large carriers; small tags and cut ends) [C4m#19-5th4w-NN6-19]
29.7

What would you report for GGCPHPWLPIFSRHFCPV (peptide, not shown: large carriers; small tags and cut ends) [C4m#19-5th4w-NN6-47] ?
34.2

Note, next up: GGCLHPFLPIYSLHFCPC (peptide, not shown: large carriers; small tags and cut ends) [C4m#19-5th4w-NN6-94]
5

Then what about the binder GGCWHPFLPIRSYHFCPW (peptide, not shown: large carriers; small tags and cut ends) [C4m#19-5th2w-NNS6-14] ?
34.7

// repeat for GGCWHPFLPIRSVHFCCR (peptide, not shown: large carriers; small tags and cut ends) [C4m#19-5th4w-NN6-14] and report
16.1

Same thing, different binder: GGCVHPYLPISSIHFCSM (peptide, not shown: large carriers; small tags and cut ends) [C4m3127-4th-NNS6-72]
20

Repeat with GGCRHPFLPIFSWHFCAV (peptide, not shown: large carriers; small tags and cut ends) [C4m#19-5th4w-NN6-80]
3.8

Field entry: GGCWHPWLPILSPHFCPR (peptide, not shown: large carriers; small tags and cut ends) [C4m#19-5th4w-NN6-21]
37.5
